Known Ki of a selection of compounds
- Assayed System: PCSK9 (Homo sapiens, UniProt Q8NBP7)
- Construct: Biotinylated PCSK9 was obtained commercially; purchased
- Sequence (Q8NBP7 153-692): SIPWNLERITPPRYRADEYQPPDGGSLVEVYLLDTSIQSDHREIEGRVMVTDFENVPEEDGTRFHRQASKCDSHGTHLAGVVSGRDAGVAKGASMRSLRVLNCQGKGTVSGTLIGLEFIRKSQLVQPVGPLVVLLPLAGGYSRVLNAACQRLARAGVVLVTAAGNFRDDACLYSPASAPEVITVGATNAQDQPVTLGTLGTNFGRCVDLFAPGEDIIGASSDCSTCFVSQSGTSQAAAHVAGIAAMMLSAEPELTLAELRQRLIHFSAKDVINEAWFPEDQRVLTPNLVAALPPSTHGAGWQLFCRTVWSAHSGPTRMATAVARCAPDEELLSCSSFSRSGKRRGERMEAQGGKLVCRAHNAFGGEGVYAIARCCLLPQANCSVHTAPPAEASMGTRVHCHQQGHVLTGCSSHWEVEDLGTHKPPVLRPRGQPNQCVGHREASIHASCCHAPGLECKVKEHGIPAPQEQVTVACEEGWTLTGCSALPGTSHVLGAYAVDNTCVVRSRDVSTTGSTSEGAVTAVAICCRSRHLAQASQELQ
- Method Description: PCSK9 Alexa FRET Plus TR-FRET assay (displacement of AlexaFluor647 tagged cyclic peptide Reagent B)
- Assay type: binding
- Particulars: Ki Plus, 0.5 nM biotinylated PCSK9, 960 nM AF cyclic peptide Reagent B; Ki calculated from IC50 and KD of AF peptide
Quantity Name: Ki (nM)

>>> endpoint_value("COc1ccc(C[C@@H]2NC(=O)[C@H]([C@@H](C)O)NC(=O)[C@@H]3[C@@H]4CCN3C(=O)[C@@H]3Cc5cn(c6ccc(F)cc56)CCCCOc5cc(ccc5CNC(=O)CCC(=O)N[C@@H](C)C(=O)N[C@H](CN)C(=O)N[C@@H](Cc5cccc(c5)CNC(=O)CO4)C(=O)N3)CCNC(=O)[C@]3(C)CCCN3C2=O)cc1 [Ex-54]")
0.367
>>> endpoint_value("COc1ccc(C[C@@H]2NC(=O)[C@H]([C@@H](C)O)NC(=O)[C@@H]3[C@@H]4CCN3C(=O)[C@@H]3Cc5cn(c6ccc(F)cc56)CCCCCCN(Cc5ccc(cc5)CCNC(=O)[C@]5(C)CCCN5C2=O)C(=O)CCC(=O)N[C@@H](C)C(=O)N[C@H](CNC(=O)Cc2cccc(OCCC[N+](C)(C)C)c2)C(=O)N[C@@H](Cc2cccc(c2)CNC(=O)CO4)C(=O)N3)cc1 [Ex-56]")
0.0224
